- Test system: LOX IMVI melanoma
- Method Notes: NCI-60 one-dose screen, 48 h (100 = growth as untreated, 0 = no growth, -100 = all killed)
- Stated Conditions: 10 µM unless noted
Compounds without any hit were thinned out: in the full panel of roughly 83,000, 20% have a hit.
Endpoint Label: growth (%)

>  <Structure>
COc1cc(Br)c(-c2nc(-c3ccccc3)c(-c3ccccc3)n2Cc2ccccc2)cc1OC

>  <Target Or System>
LOX IMVI melanoma

>  <Endpoint Label>
growth

>  <Assay Result>
61.3

$$$$
>  <Structure>
CCCCOc1c(N)cccc1C(=O)OCCN(CC)CC

>  <Target Or System>
LOX IMVI melanoma

>  <Endpoint Label>
growth

>  <Assay Result>
102

$$$$
>  <Structure>
C=CC(=O)NC(=O)Nc1ccccc1Cl

>  <Target Or System>
LOX IMVI melanoma

>  <Endpoint Label>
growth

>  <Assay Result>
86.1

$$$$
>  <Structure>
Cc1cc(-c2ccccc2)nc2ccccc12

>  <Target Or System>
LOX IMVI melanoma

>  <Endpoint Label>
growth

>  <Assay Result>
98.5

$$$$
>  <Structure>
CCOC(=O)c1noc2c1CCc1c-2cn(Cc2ccc(OC)cc2)c1-c1cc(OC)c(OC)c(OC)c1

>  <Target Or System>
LOX IMVI melanoma

>  <Endpoint Label>
growth

>  <Assay Result>
42.3

$$$$
>  <Structure>
Clc1ccc(CN2COc3c(ccc4cccnc34)C2)cc1Cl

>  <Target Or System>
LOX IMVI melanoma

>  <Endpoint Label>
growth

>  <Assay Result>
2.29

$$$$
